assay-remarks: chemical genetic growth profiling, strain panel (AID 1159580);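 further: tested at 20 µM; growth read once vehicle control cultures reached saturation at 30 °C; lower values mean less growth of the strain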
settings: S. cerevisiae deletion strains, growth OD, locus YER015W, strain faa2
The whole screen tested about 5,500 compounds, of which about 2,000 (36%) were called active. Not shown: some 18% with an inconclusive outcome. No stated cut-off is given here; in the data, active means normalized growth mostly below about 0.91 (no sharp cut-off); inconclusive means no clear call, values can overlap the other calls; inactive means mostly above about 0.92. Some of the results follow.
Choose the fitting class; nothing outside active, inactive is accepted.

Answered examples (5):
INSERT INTO assay_data (compound, label) VALUES
  ('COc1cc2c(cc1OC)[C@@H]1C(=O)c3ccc4oc(C(C)C)cc4c3O[C@@H]1CO2', 'inactive'),
  ('CC1=C(C/C=C(\C)CCC[C@H](C)CCC[C@H](C)CCCC(C)C)C(=O)c2ccccc2C1=O', 'inactive'),
  ('COc1cc2c(cc1OC)[C@@H]1C(=O)c3ccc4c(c3O[C@@H]1CO2)C=CC(C)(C)O4', 'inactive'),
  ('NC(=O)c1ccc[n+]([C@@H]2O[C@H](COP(=O)([O-])OP(=O)(O)OC[C@H]3O[C@@H](n4cnc5c(N)ncnc54)[C@H](O)[C@@H]3O)[C@@H](O)[C@H]2O)c1', 'inactive'),
  ('CCOC(=O)C(Cc1ccc(O)cc1)NC(C)=O (configuration not stated)', 'inactive');

Switching to the query record.
Please indicate how the test categorized COc1ccc2c(c1)O[C@@H]1COc3cc(OC)c(OC)cc3[C@@H]1C2=O .
active
